- assay-target: GDP-KRAS G12V (Homo sapiens, UniProt P01116, G12V)
- Sequence (P01116 1-169 isoform P01116-2 G12V): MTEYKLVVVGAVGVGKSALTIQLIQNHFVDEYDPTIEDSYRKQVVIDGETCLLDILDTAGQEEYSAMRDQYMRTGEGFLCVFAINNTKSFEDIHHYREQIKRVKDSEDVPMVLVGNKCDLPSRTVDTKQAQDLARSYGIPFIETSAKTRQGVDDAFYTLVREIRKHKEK
- assay-comment: biochemical
The label is satisfied for IC50 below 4 nM and not satisfied for IC50 equal to or exceeding 4 nM.

# compound, assay-target, category
measured = [
    ("C#Cc1c(F)ccc2cc(N)cc(-c3nc4c5c(nc(OC[C@@]67CCCN6C[C@H](F)C7)nc5c3F)N3CCCC(F)(F)C3CO4)c12 (some centres unmarked)", "GDP-KRAS G12V (Homo sapiens, UniProt P01116, G12V)", "not satisfied"),
    ("C#Cc1c(F)ccc2cc(N)cc(-c3nc4c5c(nc(OC[C@@]67CCCN6C[C@H](F)C7)nc5c3F)N3CCCOCC3N4)c12 (some centres unmarked)", "GDP-KRAS G12V (Homo sapiens, UniProt P01116, G12V)", "satisfied"),
    ("C#Cc1c(F)ccc2cc(N)cc(-c3nc4c5c(nc(OC[C@@]67CCCN6C[C@H](F)C7)nc5c3F)N3CCCC[C@H](F)[C@H]3N4C)c12 [Compound 40A]", "GDP-KRAS G12V (Homo sapiens, UniProt P01116, G12V)", "satisfied"),
    ("C#Cc1c(F)ccc2cc(N)cc(-c3nc4c5c(nc(OC[C@@]67CCCN6C[C@H](F)C7)nc5n5c(n4C)=CC=CCC5)c3F)c12", "GDP-KRAS G12V (Homo sapiens, UniProt P01116, G12V)", "not satisfied"),
    ("C#Cc1c(F)ccc2cc(N)cc(-c3nc4c5c(nc(OC[C@@]67CCCN6C[C@H](F)C7)nc5c3F)N3[C@H](C)CCOC[C@H]3N4C)c12", "GDP-KRAS G12V (Homo sapiens, UniProt P01116, G12V)", "not satisfied"),
    ("N#Cc1c(N)sc2c(F)ccc(-c3c(F)c4c5c(nc(OC[C@@]67CCCN6C[C@H](F)C7)nc5c3F)N3CCCOC[C@H]3CO4)c12 (single isomer, unassigned) [Compound 163B]", "GDP-KRAS G12V (Homo sapiens, UniProt P01116, G12V)", "satisfied"),
    ("C#Cc1c(F)ccc2cc(N)cc(-c3nc4c5c(nc(OC[C@@]67CCCN6C[C@H](F)C7)nc5c3F)N3CCC=CC[C@H]3C4=C)c12", "GDP-KRAS G12V (Homo sapiens, UniProt P01116, G12V)", "satisfied"),
    ("C[C@H]1CCOC[C@H]2N(C)c3nc(-c4cc(O)cc5ccc(F)c(Cl)c45)c(F)c4nc(OC[C@@]56CCCN5C[C@H](F)C6)nc(c34)N12", "GDP-KRAS G12V (Homo sapiens, UniProt P01116, G12V)", "satisfied"),
    ("C#Cc1c(F)ccc2cc(N)cc(-c3nc4c5c(nc(OC[C@@]67CCCN6C[C@H](F)C7)nc5c3F)N3CCCOCC3N4CCC(F)(F)F)c12 (some centres unmarked)", "GDP-KRAS G12V (Homo sapiens, UniProt P01116, G12V)", "not satisfied"),
    ("C#Cc1c(F)ccc2cc(N)cc(-c3nc4c5c(nc(OC[C@@]67CCCN6C[C@H](F)C7)nc5c3F)N3[C@@H](C)CCOC[C@H]3N4C)c12", "GDP-KRAS G12V (Homo sapiens, UniProt P01116, G12V)", "satisfied"),
    ("C#Cc1c(F)ccc2cc(N)cc(-c3nc4c5c(nc(OC[C@@]67CCCN6C[C@H](F)C7)nc5c3F)N3C(C5CCC5)CCOCC3N4C)c12 (some centres unmarked)", "GDP-KRAS G12V (Homo sapiens, UniProt P01116, G12V)", "not satisfied"),
]
